These entries and their values trace back to paper PMC10797637.

System: HepG2 human hepatocytes
assay protocol: Human cell cytotoxicity assay
Type: cell-based
protocol conditions: HepG2, read-out: HepG2 EC50
pEC50: −log10 of the molar value.
result type: pEC50

Worked examples follow.
molecule smiles | system tested | pEC50
COC(=O)[C@@]12Oc3cc4c(c(O)c3C(=O)C1=C(O)CC[C@@H]2O)[C@@H]1C=C[C@@]2(C4)C(=O)c3cc(C)cc(O)c3C(O)=C2C1=O | HepG2 human hepatocytes | < 4.60
COC(=O)[C@@]12Oc3cc4c(c(O)c3C(=O)C1=C(O)CC[C@@H]2O)[C@@H]1C=C[C@@]2(C4)C(=O)c3cc(C)cc(O)c3C(=O)[C@]2(O)C1=O | HepG2 human hepatocytes | < 4.60

Here's the next entry for you.
Query :: Tell me its pEC50 on HepG2 human hepatocytes: `COC(=O)[C@]1([C@@H](O)CCC(=O)O)CC(=O)c2c(cc3c(c2O)[C@@H]2C=C[C@@]4(C3)C(=O)c3cc(C)cc(O)c3C(O)=C4C2=O)O1`
Result :: < 4.60
